growth overview
System: HL-60(TB) leukemia
Experiment: NCI-60 one-dose screen, 48 h (100 = growth as untreated, 0 = no growth, -100 = all killed)
Conditions: 10 µM unless noted
Compounds without any hit were thinned out: in the full panel of roughly 83,000, 20% have a hit.
Supply the numeric figure in %, leaving out any unit text.

Reference set (3 entries):
molecule	growth, %
N#Cc1c(-c2ccco2)nc2c(c(-c3ccccc3)nn2-c2ccccc2)c1-c1ccc(O)cc1	22.9
c1ccc2c(-c3nc(N4CCOCC4)c4c5c(sc4n3)CCCCCC5)cccc2c1	114
CN1C(=O)C(C2=NNC(c3ccccc3C(=O)O)C2)C(=O)N(C)C1=O (stereo not given)	95.5

For this molecule ( `O=C(Nc1ccc(CN2CCOCC2)c(C(F)(F)F)c1)c1nc2ccc3[nH]ncc3c2c2c1CCCC2` ), measured growth is 98.1

For `O=C(O)c1cc2c(s1)C(=O)c1sccc1C2=O` the molecule record lists growth as 10.9

GET /value?item= Cc1cc(N2CCCC2)nc(NC2CCCC(Nc3ccnc4cc(Cl)ccc34)C2)n1 (stereo not given) &field=growth returns -68.5

Please fill in: growth reported for `O=C1NC(=S)NC(=O)C1CC(=O)n1c(-c2ccccc2)nc2ccccc21` = 104

Form: molecule = `COC(=O)c1ccc2[nH]c(O)c(C(=Nc3ccc(N(C)C(=O)CN4CCN(C)CC4)cc3)c3ccc(CCO)cc3)c2c1` ; growth = 7.24

Value of growth reported for the molecule `NC[C@H](O)c1ccc(O)c(O)c1` is 98.8

Reported growth ( O=CCCCC(O)C=O (stereo not given) ) = 92.2

* * *

Listed compounds paired with reported growth
Test system: HL-60(TB) leukemia
Assay: NCI-60 one-dose screen, 48 h (100 = growth as untreated, 0 = no growth, -100 = all killed)
Settings: 10 µM unless noted
Compounds without any hit were thinned out: in the full panel of roughly 83,000, 20% have a hit.
Dear colleague, please return just the value in %, with no unit written.

Solved entries:
COc1cccc(NC(=O)c2c(-c3ccccc3)c(-c3ccccc3)n[nH]c2=O)c1 95.5
C=C1C(=O)O[C@H]2[C@H]1CC/C(COC(=O)NCc1ccc(Cn3c(=O)sn(-c4ccccc4)c3=O)cc1)=C\CC[C@@]1(C)O[C@@H]21 -25.2
C=C(c1ccc(C(=O)O)cn1)c1cc2c(cc1C)C(C)(C)CCC2(C)C 84.9
CCC(Br)(CC)C(=O)c1ccc(OCC(=O)O)c(Cl)c1Cl 111
Cc1ccc2cc3c(NC(=O)c4cccnc4)nn(C)c3nc2c1 87.8

Kindly note the recorded growth for `COc1ccc2nc(NNC(=O)c3cnccn3)c3cccn3c2c1` , which is -27.1

* * *

Test system: OVCAR-3 ovarian
Test: NCI-60 one-dose screen, 48 h (100 = growth as untreated, 0 = no growth, -100 = all killed)
Conditions: 10 µM unless noted
Compounds without any hit were thinned out: in the full panel of roughly 83,000, 20% have a hit.
Flag rule - growth less than 70% flags Condition met; the remaining entries get Condition not met.

Some solved entries appear below for comparison.
compound	group
CC[C@H](C)[C@H](NC(=O)Nc1ccccc1)C(=O)N(C)[C@H](C[C@@H](OC(C)=O)c1nc(C(=O)N[C@@H](Cc2ccccc2)C[C@H](C)C(=O)OC)cs1)C(C)C	Condition met
O=C(NCCNC(=O)c1ccc([As](O)O)cc1)c1ccc([As](O)O)cc1	Condition not met
COc1ccccc1N1CCN(CCc2c[nH]c3cc4c(cc23)OCO4)CC1	Condition not met
CC(=O)[O][Hg][c]1nc2c(c(=O)n(C)c(=O)n2C)n1C	Condition not met
C=CC(O)CN1CC1CC (stereo not given)	Condition not met
CC(/C=N/N=C(N)N)=N/N=C(N)N	Condition not met
Cn1cnnc1[S-].[Au+].c1ccc([PH+](c2ccccc2)c2ccccc2)cc1	Condition met
CCCCNCCc1ccccn1	Condition not met
O=C(O)c1cccc(CCl)c1	Condition not met
CC1=C(SCCC(=O)OCC(=O)NCCC[Te]c2ccccc2)C(=O)c2ccccc2C1=O	Condition met

Exercise: Lab note: confirm whether the reported growth for this compound is below 70%, equality not counting. compound: `C1CN1c1nc(N2CC2)nc(N2CC2)n1`
Key: Condition met

Exercise: hey, is growth for `C[C@]12C[C@H](O)[C@H]3[C@@H](CCC4=CC(=O)CC[C@@]43C)[C@@H]1CC[C@@H]2O` lower than 70% or not?
Key: Condition not met

Exercise: Dear reviewer, please state whether CC(C)(C)[Si](C)(C)OC1[C@@H](O[Si](C)(C)C(C)(C)C)[C@@H](CNC(=O)NC(=O)CF)O[C@H]1n1cnc2c(NC(=O)Nc3ccccc3)ncnc21 (stereo not given in full) has growth strictly beneath 70%.
Key: Condition met

Exercise: is_below(growth, 70%) for O=[N+]([O-])c1cccc([As]=[As]c2cccc([N+](=O)[O-])c2)c1 (stereo not given) ?
Key: Condition met

Exercise: Dear colleague, could you confirm whether growth of `c1ccc(-c2ccc3ccccc3[o+]2)cc1` falls below 70%? Thanks.
Key: Condition not met

Exercise: Lab note: growth threshold 70%. Does this compound come in strictly under it? `C/C(=C\c1cc(C(F)(F)F)n(-c2ccc(N)cc2)n1)[C@@H]1C[C@@H]2O[C@]2(C)CCC[C@H](C)[C@H](O)[C@@H](C)C(=O)C(C)(C)[C@@H](O)CC(=O)O1`
Key: Condition met

Exercise: Is growth of `O=C(N/N=C/c1ccc([N+](=O)[O-])o1)c1cc([N+](=O)[O-])cc([N+](=O)[O-])c1O` strictly below 70%?
Key: Condition not met

Exercise: Input CC12CCC(=O)C=C1C(O)CC1C2CCC2(C)C(O)CCC12 (stereo not given) ; condition: growth strictly below 70%. Does it hold?
Key: Condition not met

Exercise: Check if growth falls below 70% for `CC(=O)N(C)C1=Nc2ccc(Cl)cc2C(c2ccccc2)=[N+]([O-])C1` .
Key: Condition not met

Exercise: Report whether reported growth is lower than 70% (strictly) for `Cc1cc(NC(=O)/C=C/c2ccc([N+](=O)[O-])cc2)ccc1S(=O)(=O)F`
Key: Condition not met

Exercise: Lab note: confirm whether the reported growth for this compound is below 70%, equality not counting. compound: `CCC[CH2][Sn]1([CH2]CCC)[O]C(=O)c2cccc([N+](=O)[O-])c2C(=O)[O]1`
Key: Condition met

Exercise: API: query returns whether the compound falls strictly under 70% in growth. Query: `CCC[CH2][Sn]([CH2]CCC)([CH2]CCC)[O]C(=O)CC`
Key: Condition met

Exercise: Report whether reported growth is lower than 70% (strictly) for `[O]=[Sn]([CH]1CCCCC1)[CH]1CCCCC1`
Key: Condition met

Exercise: A record lists `O=[N+]([O-])c1ccc(F)c([N+](=O)[O-])c1F` . Is its growth below 70%?
Key: Condition not met

Exercise: # check: growth < 70% for `CC(C)CCC1(CCO)C(=O)NC(=S)NC1=O`
Key: Condition not met

Exercise: hey, is growth for C=CC(=O)NC(O)C(Cl)(Cl)Cl (stereo not given) lower than 70% or not?
Key: Condition not met

Exercise: Regarding `C[C@]12CCc3sc(-c4ccc(Cl)cc4)nc3C1=CC[C@@H]1[C@@H]2CC[C@]2(C)C(=O)CC[C@@H]12` , kindly confirm whether its growth is beneath 70%.
Key: Condition met

Exercise: State whether 70% exceeds growth recorded for `O=S(=O)(c1ccc(Cl)cc1)C(Cl)(Cl)Cl` .
Key: Condition met

Exercise: Please let me know if C#CC1(O)CCC2(C)C(CCC3C4CCC(=O)C4(C)CCC32)C1 (stereo not given) shows growth below 70%.
Key: Condition not met

* * *

System: HL-60(TB) leukemia
Test: NCI-60 one-dose screen, 48 h
Conditions: 10 µM unless noted
Compounds without any hit were thinned out: in the full panel of roughly 83,000, 20% have a hit. Active and inactive are the calls of the source. How the source made its calls: active means growth percent below 10; inactive means the rest.
Please reply with one of these outcomes: active, inactive

Past entries and their recorded results:
molecule	group
O=S1(=O)CCN(Cc2ccccc2)CC1	inactive
CC1=CNNc2c3ncnc-3ncn21	inactive
O=C(Nc1cccc(Cl)c1)Oc1c(Cl)c(Cl)c(Cl)c(Cl)c1Cl	inactive
O=C1/C(=C\c2cn(-c3nc(N4CCOCC4)nc(N4CCOCC4)n3)c3ccccc23)c2ccccc2N1c1c(Cl)cccc1Cl	inactive
CCOC(=O)c1ccc2c(c1)c1c(C)c3ccncc3c(C)c1n2C	active

Exercise: Please share the test call associated with `COc1ccc2nc(-c3ccc(-n4cncc4-c4ccc(OC)c(N)c4)cc3)sc2c1` .
Key: inactive

Exercise: Recorded call for CCCCC1COc2cccc3c2N1C=C/C3=C\C(=O)N(C)c1cccc(Cl)c1 (stereo not given) ?
Key: inactive

Exercise: Give the logged outcome of this assay for the following molecule: Cc1c(O)c(O)cc2c3c(oc12)CC(c1ccc2c(c1)OCO2)CC3=O (stereo not given)
Key: inactive

Exercise: So what was the verdict on CN(Cc1cnc2nc(N)nc(N)c2n1)c1ccc(C(=O)NC(CCC(=O)O)C(=O)O)cc1 (stereo not given) in this test?
Key: inactive

Exercise: Given `O=C(CCN1CCCC1)Nc1ccc2c(Nc3ccc(F)cc3)c3ccccc3nc2c1` , state the outcome it received in this test.
Key: active

Where these numbers come from: PubChem BioAssay (NCI)
